Where do these numbers come from? They come from patent US20100260765A1.

Catalogue of KDR tyrosine phosphorylation in HUVEC, EC50 (nM), Average values
# targetSystem: human KDR (human, UniProt P35968 20-1356)
# Sequence (P35968 20-1356): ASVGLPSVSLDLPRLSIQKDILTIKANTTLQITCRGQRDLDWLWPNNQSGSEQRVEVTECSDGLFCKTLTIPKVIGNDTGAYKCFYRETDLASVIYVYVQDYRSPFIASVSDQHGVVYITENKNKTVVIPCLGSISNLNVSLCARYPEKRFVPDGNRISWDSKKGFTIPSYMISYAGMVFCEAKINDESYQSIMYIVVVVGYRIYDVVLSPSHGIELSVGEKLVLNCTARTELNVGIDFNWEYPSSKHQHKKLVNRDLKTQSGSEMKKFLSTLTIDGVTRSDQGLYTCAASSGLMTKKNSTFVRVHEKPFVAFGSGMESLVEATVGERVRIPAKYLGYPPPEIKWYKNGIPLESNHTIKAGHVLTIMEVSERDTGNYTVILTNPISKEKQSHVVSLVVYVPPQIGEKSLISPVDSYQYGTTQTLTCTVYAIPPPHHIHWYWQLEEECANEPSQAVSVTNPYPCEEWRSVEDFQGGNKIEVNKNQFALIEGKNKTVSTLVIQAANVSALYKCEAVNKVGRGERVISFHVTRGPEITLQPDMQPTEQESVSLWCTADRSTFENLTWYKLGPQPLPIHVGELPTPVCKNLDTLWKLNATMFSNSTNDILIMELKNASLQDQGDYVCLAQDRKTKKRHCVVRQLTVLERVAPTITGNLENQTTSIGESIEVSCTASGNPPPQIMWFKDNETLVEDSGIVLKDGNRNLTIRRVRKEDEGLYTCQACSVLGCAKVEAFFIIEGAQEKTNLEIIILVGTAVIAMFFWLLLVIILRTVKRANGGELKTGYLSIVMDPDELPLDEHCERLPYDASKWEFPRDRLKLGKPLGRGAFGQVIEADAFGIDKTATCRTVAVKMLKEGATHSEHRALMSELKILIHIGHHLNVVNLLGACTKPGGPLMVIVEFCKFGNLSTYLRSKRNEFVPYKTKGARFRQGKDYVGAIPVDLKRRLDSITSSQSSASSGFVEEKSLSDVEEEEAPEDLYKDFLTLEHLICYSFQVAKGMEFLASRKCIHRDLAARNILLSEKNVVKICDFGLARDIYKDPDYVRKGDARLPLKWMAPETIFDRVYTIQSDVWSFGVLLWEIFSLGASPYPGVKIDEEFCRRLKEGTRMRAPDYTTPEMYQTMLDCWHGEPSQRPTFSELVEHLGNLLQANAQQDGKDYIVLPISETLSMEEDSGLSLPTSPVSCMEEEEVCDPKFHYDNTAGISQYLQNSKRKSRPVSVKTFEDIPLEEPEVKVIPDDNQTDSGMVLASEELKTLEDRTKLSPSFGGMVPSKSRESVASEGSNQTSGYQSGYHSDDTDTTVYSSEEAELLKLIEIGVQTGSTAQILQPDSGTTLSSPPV
# testName: cell-based or functional assay
The figure you give is taken to be in nM; do not add the unit.

INSERT INTO results (binder, numericvalue) VALUES
  ('33B1 (antibody, V domains shown, Fully human monoclonal antibody from a XenoMouse hybridoma (IgG2 or IgG4 strain), purified) VH: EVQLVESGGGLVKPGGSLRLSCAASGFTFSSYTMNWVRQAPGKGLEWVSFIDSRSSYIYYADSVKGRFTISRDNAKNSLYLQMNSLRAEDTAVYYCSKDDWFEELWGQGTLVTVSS VL: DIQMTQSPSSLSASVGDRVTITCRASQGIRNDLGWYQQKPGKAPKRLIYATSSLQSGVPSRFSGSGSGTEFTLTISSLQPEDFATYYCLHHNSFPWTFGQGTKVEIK', 1.1);

API: the following record is the query input.
Item: 32F4 (antibody, V domains shown, Fully human monoclonal antibody from a XenoMouse hybridoma (IgG2 or IgG4 strain), purified) VH: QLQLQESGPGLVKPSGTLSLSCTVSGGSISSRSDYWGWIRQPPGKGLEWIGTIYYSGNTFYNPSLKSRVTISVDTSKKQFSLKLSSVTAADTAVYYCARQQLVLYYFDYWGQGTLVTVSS VL: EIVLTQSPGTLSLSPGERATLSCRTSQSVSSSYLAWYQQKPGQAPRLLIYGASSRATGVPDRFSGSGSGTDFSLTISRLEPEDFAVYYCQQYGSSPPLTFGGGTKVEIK | KDR tyrosine phosphorylation in HUVEC, EC50 (nM), Average: 1.8
